The origin of these recorded values is PubChem BioAssay AID1445.

system.tested: Aminopeptidase N (Plasmodium falciparum (isolate 3D7)) (UniProt O96935)
Sequence (O96935 whole entry, looked up): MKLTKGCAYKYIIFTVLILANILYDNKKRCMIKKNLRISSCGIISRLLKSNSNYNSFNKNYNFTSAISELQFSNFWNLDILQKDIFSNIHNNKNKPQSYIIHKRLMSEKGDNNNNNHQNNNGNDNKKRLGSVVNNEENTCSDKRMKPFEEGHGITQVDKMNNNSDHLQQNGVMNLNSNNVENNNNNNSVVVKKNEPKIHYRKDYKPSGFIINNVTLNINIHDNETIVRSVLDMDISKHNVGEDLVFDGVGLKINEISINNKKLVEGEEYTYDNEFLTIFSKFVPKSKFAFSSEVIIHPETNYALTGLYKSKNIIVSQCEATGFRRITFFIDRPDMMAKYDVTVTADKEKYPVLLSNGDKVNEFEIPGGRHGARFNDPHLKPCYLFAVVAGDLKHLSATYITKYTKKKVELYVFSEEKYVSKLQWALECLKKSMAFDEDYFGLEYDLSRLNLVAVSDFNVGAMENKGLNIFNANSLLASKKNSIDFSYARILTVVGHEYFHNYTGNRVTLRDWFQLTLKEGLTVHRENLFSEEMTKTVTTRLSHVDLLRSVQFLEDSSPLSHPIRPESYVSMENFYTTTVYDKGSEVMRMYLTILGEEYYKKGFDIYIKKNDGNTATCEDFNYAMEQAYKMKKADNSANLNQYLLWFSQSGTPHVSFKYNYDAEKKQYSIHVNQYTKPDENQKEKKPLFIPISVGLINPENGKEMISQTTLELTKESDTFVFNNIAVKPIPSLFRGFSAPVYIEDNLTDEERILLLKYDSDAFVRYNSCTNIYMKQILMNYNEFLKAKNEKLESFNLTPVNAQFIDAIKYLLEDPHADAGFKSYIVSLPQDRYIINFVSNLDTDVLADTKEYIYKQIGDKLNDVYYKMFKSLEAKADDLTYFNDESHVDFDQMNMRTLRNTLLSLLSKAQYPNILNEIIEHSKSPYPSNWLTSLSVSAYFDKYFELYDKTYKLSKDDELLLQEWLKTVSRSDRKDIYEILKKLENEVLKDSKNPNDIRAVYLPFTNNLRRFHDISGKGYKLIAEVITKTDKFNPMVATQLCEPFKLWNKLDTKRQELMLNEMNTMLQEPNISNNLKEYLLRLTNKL
protocol.summary: malaria alanyl aminopeptidase activity blockers – biochemical, fluorogenic H-Leu-NHMec substrate, 1536-well (AID 1445)
condition.summary: recombinant M1AAP, H-Leu-NHMec fluorogenic kinetic assay; at 30 µM
About 910 (0.41%) of roughly 220,000 compounds were called active.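 Rule for the calls: active = primary inhibition above the hit cutoff, then over 50% inhibition at one or more dose response concentrations (cut at about 23% in these data, passing the limit was not always enough); inconclusive = conflicting primary data, or primary hits not chosen for dose response; inactive = low primary inhibition, or under 50% at every dose.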 What follows is part of a selection rich in actives, with near analogues and random picks from the rest. Entries with a potency or affinity are not part of this list.
Outcomes: active, inactive

[[record]]
molecule = "CCOC(=O)Cc1nnc(NC(=O)CSc2nnc3c4ccccc4n(C)c3n2)s1"
label = "inactive"

[[record]]
molecule = "CC1(C)Nc2ccccc2C(=O)N1NS(=O)(=O)c1ccccc1"
label = "inactive"

[[record]]
molecule = "Cc1ccc(C)c(N2CCN(C(=O)c3ccc(CSc4nc5ccncc5[nH]4)cc3)CC2)c1"
label = "inactive"

[[record]]
molecule = "CCc1n[nH]c(=S)n1/N=C/c1ccccc1OCc1ccc(Cl)cc1"
label = "inactive"

[[record]]
molecule = "COc1ccc(C(=O)c2c(C)oc3ccc(O)c(CN4CCOCC4)c23)cc1"
label = "inactive"

[[record]]
molecule = "Cc1cc(CN(C)C(=O)CC2C(=O)NCCN2Cc2c(F)cccc2Cl)n[nH]1 (stereo not drawn)"
label = "inactive"

[[record]]
molecule = "C/C(Cc1ccccc1)=N/NC(=O)CCCC(=O)N/N=C(/C)Cc1ccccc1"
label = "inactive"

[[record]]
molecule = "CCCOc1ccc(C(C)=O)cc1CSCCC#N"
label = "inactive"

[[record]]
molecule = "CC(/C=C1\\SC(=S)N(NC(=O)c2cccc(O)c2)C1=O)=C\\c1ccccc1"
label = "inactive"

[[record]]
molecule = "Cc1ccc2[nH]c(=O)c(CN(CC3COCCO3)C(=O)Nc3ccccc3C)cc2c1 (stereo not drawn)"
label = "inactive"

[[record]]
molecule = "CC(=O)CC(c1ccc([N+](=O)[O-])cc1)c1c(O)c2ccccc2oc1=O (stereo not drawn)"
label = "inactive"

[[record]]
molecule = "CCOC(=O)Cc1csc(NS(=O)(=O)c2ccc3c4c(cccc24)C(=O)N3CC)n1"
label = "active"

[[record]]
molecule = "N=c1c(C(=O)NCC2CCCO2)cc2c(=O)n3ccccc3nc2n1Cc1cccnc1 (stereo not drawn)"
label = "inactive"

[[record]]
molecule = "Cn1cc(/C=C2\\SC(=S)N(NC(=O)c3ccccc3)C2=O)c2ccccc21"
label = "inactive"

[[record]]
molecule = "CCCn1c(=N)c(C(=O)NCC2CCCO2)cc2c(=O)n3cccc(C)c3nc21 (stereo not drawn)"
label = "inactive"

[[record]]
molecule = "O=C(c1ccc(COCC(F)(F)F)o1)N1CCCCCC1"
label = "inactive"

[[record]]
molecule = "Cc1c(N=Cc2nc3ccccc3[nH]2)c(=O)n(-c2ccccc2)n1C"
label = "inactive"

[[record]]
molecule = "CCOC(=O)Cc1nnc(NC(=O)C(CC)Sc2nnc3c4ccccc4n(C)c3n2)s1 (stereo not drawn)"
label = "active"

[[record]]
molecule = "Cc1cc(-c2nc3c4c5c(sc4[nH]c(=O)n3n2)CCC5)c(C)o1"
label = "active"

[[record]]
molecule = "CN(C)CCCNc1ncnc2scc(-c3ccccc3)c12"
label = "inactive"

[[record]]
molecule = "COCCCn1c(=N)c(C(=O)NCc2ccc3c(c2)OCO3)cc2c(=O)n3ccccc3nc21"
label = "inactive"

[[record]]
molecule = "CCOC(=O)Cc1nnc(NC(=O)CSc2nnc3c4ccccc4n(C(C)C)c3n2)s1"
label = "inactive"

[[record]]
molecule = "Cc1nc(SCC(=O)Nc2ccccc2)c2oc3ccccc3c2n1"
label = "inactive"

[[record]]
molecule = "CC(=O)c1ccc(OC(C)C)c(CSc2nc(O)cc(=O)[nH]2)c1"
label = "inactive"

[[record]]
molecule = "COc1ccc(C2/C(=C(/O)c3ccccc3)C(=O)C(=O)N2CCO)cc1 (stereo not drawn)"
label = "inactive"

[[record]]
molecule = "O=C(Cc1sc(Nc2ccccc2)nc1-c1ccccc1)NCc1ccccc1"
label = "inactive"

[[record]]
molecule = "Cn1c(SCC(=O)N2CCOCC2)nnc1-c1cccc(NC(=O)c2ccccc2F)c1"
label = "active"

[[record]]
molecule = "CCCCNC(=S)NNC(=O)CCn1cc(C)cn1"
label = "inactive"

[[record]]
molecule = "Cn1c(SCC(=O)N2CCOCC2)nnc1-c1cccc(NC(=O)c2ccccc2)c1"
label = "inactive"

[[record]]
molecule = "CCOC(=O)CSc1ccc(S(=O)(=O)N2CCCC2)cc1[N+](=O)[O-]"
label = "inactive"

[[record]]
molecule = "COc1ccc(N/C(C)=C2/C(=O)C(=O)N(CCO)C2c2ccc([N+](=O)[O-])cc2)cc1 (stereo not drawn)"
label = "active"

[[record]]
molecule = "O=C1CCCc2oc3c(cc(NS(=O)(=O)c4ccc5c6c(cccc46)C(=O)N5)c4ccccc43)c21"
label = "inactive"

[[record]]
molecule = "CCC(CC)C(=O)NN(C(=O)c1ccncc1)C1CC(=O)N(c2ccccc2)C1=O (stereo not drawn)"
label = "inactive"

[[record]]
molecule = "Cn1c(SCC(=O)N2CCOCC2)nnc1-c1ccc(NC(=O)c2ccccc2F)cc1"
label = "inactive"

[[record]]
molecule = "COc1ccc(NS(=O)(=O)c2cccc(Cl)c2)cc1S(=O)(=O)N1CCCCC1"
label = "inactive"

[[record]]
molecule = "CCOC(=O)c1cc(-c2cccc([N+](=O)[O-])c2)on1"
label = "inactive"

[[record]]
molecule = "N#Cc1c(N2C(=O)Nc3ccccc3N2O)sc2c1CCCCCC2"
label = "inactive"

[[record]]
molecule = "COC(=O)c1c(C)oc(C)c1S(=O)(=O)N1CCCCC1"
label = "inactive"

[[record]]
molecule = "CC(=O)N1CCN(c2ccc([N+](=O)[O-])cc2)CC1"
label = "inactive"

[[record]]
molecule = "O=C(NCc1ccccn1)C(=O)Nc1ccccc1"
label = "inactive"

[[record]]
molecule = "O=C(CCn1c(=O)oc2ccccc21)Nc1ccc2c(c1)OCCO2"
label = "inactive"

[[record]]
molecule = "Cc1c(N=Cc2nc3ccccc3n2C)c(=O)n(-c2ccccc2)n1C"
label = "active"

[[record]]
molecule = "O=C(NN1C(=O)C2C3C=CC(O3)C2C1=O)c1cccc(O)c1 (stereo not drawn)"
label = "inactive"

